As shown below, each of these compounds has a reported inhibition at 2 µM value.
Target: Steroid 17-alpha-hydroxylase/17,20 lyase (Homo sapiens, UniProt P05093)
Sequence (P05093 whole entry): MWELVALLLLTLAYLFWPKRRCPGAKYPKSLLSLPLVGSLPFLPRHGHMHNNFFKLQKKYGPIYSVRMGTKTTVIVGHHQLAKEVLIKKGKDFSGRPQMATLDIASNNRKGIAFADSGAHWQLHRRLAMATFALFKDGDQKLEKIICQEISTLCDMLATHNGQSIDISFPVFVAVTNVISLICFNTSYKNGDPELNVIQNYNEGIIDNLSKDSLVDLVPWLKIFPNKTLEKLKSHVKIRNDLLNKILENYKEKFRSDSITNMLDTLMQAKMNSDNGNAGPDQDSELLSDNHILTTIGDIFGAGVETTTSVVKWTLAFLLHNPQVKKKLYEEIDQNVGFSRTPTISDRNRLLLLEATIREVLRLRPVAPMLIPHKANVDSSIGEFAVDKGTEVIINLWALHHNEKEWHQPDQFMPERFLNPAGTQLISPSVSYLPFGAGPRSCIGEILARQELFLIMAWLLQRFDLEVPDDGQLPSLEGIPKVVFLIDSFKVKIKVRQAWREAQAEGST
Test: Inhibition of human CYP17 expressed in Escherichia coli at 2 uM
Write the answer as a number in %, unit excluded.

| COMPOUND STRING | inhibition at 2 µM / % |
| --- | --- |
| COc1ccc2cc(-c3ccc(F)cc3)ccc2c1-c1cccnc1 | 7 |
| Oc1ccc2cc(-c3ccc(F)cc3)ccc2c1-c1cccnc1 | 0 |
| Fc1ccc(-c2ccc3cc(-c4cccnc4)ccc3c2)cc1 | 22 |
| COc1ccc2cc(-c3ccc(F)cc3)ccc2c1Cn1ccnc1 | 45 |

-- ask Using known records, supply inhibition at 2 µM for `Fc1ccc(-c2cc(Cn3ccnc3)c3ccccc3c2)cc1`
-- reply 50

-- ask Using known records, supply inhibition at 2 µM for `COc1ccc2cc(-c3cccc(Cn4ccnc4)c3)ccc2c1`
-- reply 28

-- ask Using known records, supply inhibition at 2 µM for `Oc1ccc2cc(-c3cccc(-c4cccnc4)c3)ccc2c1`
-- reply 8

-- ask Using known records, supply inhibition at 2 µM for `Oc1ccc2cc(-c3ccc(Cn4ccnc4)cc3)ccc2c1`
-- reply 61
